TARGET: T1, Dengue 2 virus capsid protein (Dengue virus 2), P29990
T1 chain: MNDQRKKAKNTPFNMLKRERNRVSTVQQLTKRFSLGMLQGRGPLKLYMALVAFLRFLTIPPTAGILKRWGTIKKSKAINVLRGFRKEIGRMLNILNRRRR
ASSAY DETAILS: SPR (BIACORE); Peptide SEQ ID NO: 2
ATTRIBUTE MEASURED: pKd
FYI, pKd means -log10 of a concentration in mol per litre.

Task: Look at this binder and give its reported pKd. RVTQMNLNDRLASLYDKV (modifications not checked) [Peptide SEQ ID NO: 2]
Result: 6.12
